Test: chemical genetic growth profiling, strain panel (AID 1159580);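 further: tested at 20 µM; growth read once vehicle control cultures reached saturation at 30 °C; 1 = growth at the plate median or of vehicle wells; lower values mean less growth of the strain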
Settings: S. cerevisiae deletion strains, growth OD, locus YHR082C, strain KSP1, hits give low values
Among all 5,500 compounds or so, about 2,000 (36%) were called active. Roughly 18% stayed inconclusive and do not appear here. Some of the results follow.
Readings of normalized growth for the listed compounds
// print number alone

Recorded results for 5 compounds are shown here.
Enquiry: Tell us which normalized growth value is on record for O=C1Nc2ccccc2/C1=N/N=C\c1ccccc1Cl
Return: 0.918

Enquiry: Given the compound O=C1c2ccccc2O[C@@H](c2ccccc2)[C@@H]1NCc1ccccc1 , write its reported normalized growth.
Return: 0.906

Enquiry: Given O=C(CSCc1nc(-c2ccc(Cl)cc2)cs1)N/N=C\c1cccs1 , respond with its normalized growth.
Return: 0.998

Enquiry: Note down normalized growth recorded for N#Cc1c(Br)cnn1Cc1cc(C(F)(F)F)cc(C(F)(F)F)c1
Return: 0.907

Enquiry: Give normalized growth for the following compound: CCC(C)Cn1c(Sc2ncc([N+](=O)[O-])s2)n[nH]c1=O (stereo unspecified)
Return: 0.926

Continuing:
Enquiry: Give me measured normalized growth, please, for this compound: O=C(NCc1cccs1)c1csc(Cc2c(Cl)cccc2Cl)n1
Return: 1.02

Enquiry: Quickly give me recorded normalized growth for CC(C)(C)c1csc(NC(=O)Nc2ccc(Cl)cc2)n1
Return: 0.466

Enquiry: Report measured normalized growth; entry is Cc1nc(-c2ccc(C(F)(F)F)cn2)[nH]c(=O)c1Cl
Return: 0.945

Enquiry: Fill in reported normalized growth for this entry: O=C(NNC(=O)c1csc(-c2cccs2)n1)c1ccc(C(F)(F)F)cc1
Return: 0.838

Enquiry: Indicate its recorded normalized growth; the compound in question is CCn1nc(C)cc1-c1nnc(Sc2ncc([N+](=O)[O-])s2)n1C
Return: 1.01

Enquiry: Give the reported value of normalized growth for this record: N#CCCCCOc1ccc2c(=O)cc(-c3ccccc3)oc2c1
Return: 1.07

Enquiry: Kindly indicate its recorded normalized growth. Item: C#Cc1cccc(N=Cc2cc(Cl)cc(Br)c2O)c1
Return: 0.157

Enquiry: Give normalized growth for Fc1ccc(N/N=C\Cc2nnnn2-c2ccccc2)c(F)c1
Return: 0.571

Enquiry: Please give the documented normalized growth of Cc1csc2ncnc(N/N=C\c3ccccc3Cl)c12
Return: 1.05

Reference source for all entries: PubChem BioAssay AID1159580
